Reference source: patent US10336765B2

Measured log10(IC50) of individual entries
target: tankyrase 1 (Homo sapiens); construct: purchased Trevigen 4700-096-K; assay: Analysis of activity of tankyrase 1 (Trevigen kit, ELISA absorbance at 450 nm); format: biochemical; settings: Trevigen kit Cat. No. 4700-096-K; reacted at rt for 30 min; absorbance at 450 nm; read-out: TNKS1 (IC50)
Sequence (O95271 whole entry): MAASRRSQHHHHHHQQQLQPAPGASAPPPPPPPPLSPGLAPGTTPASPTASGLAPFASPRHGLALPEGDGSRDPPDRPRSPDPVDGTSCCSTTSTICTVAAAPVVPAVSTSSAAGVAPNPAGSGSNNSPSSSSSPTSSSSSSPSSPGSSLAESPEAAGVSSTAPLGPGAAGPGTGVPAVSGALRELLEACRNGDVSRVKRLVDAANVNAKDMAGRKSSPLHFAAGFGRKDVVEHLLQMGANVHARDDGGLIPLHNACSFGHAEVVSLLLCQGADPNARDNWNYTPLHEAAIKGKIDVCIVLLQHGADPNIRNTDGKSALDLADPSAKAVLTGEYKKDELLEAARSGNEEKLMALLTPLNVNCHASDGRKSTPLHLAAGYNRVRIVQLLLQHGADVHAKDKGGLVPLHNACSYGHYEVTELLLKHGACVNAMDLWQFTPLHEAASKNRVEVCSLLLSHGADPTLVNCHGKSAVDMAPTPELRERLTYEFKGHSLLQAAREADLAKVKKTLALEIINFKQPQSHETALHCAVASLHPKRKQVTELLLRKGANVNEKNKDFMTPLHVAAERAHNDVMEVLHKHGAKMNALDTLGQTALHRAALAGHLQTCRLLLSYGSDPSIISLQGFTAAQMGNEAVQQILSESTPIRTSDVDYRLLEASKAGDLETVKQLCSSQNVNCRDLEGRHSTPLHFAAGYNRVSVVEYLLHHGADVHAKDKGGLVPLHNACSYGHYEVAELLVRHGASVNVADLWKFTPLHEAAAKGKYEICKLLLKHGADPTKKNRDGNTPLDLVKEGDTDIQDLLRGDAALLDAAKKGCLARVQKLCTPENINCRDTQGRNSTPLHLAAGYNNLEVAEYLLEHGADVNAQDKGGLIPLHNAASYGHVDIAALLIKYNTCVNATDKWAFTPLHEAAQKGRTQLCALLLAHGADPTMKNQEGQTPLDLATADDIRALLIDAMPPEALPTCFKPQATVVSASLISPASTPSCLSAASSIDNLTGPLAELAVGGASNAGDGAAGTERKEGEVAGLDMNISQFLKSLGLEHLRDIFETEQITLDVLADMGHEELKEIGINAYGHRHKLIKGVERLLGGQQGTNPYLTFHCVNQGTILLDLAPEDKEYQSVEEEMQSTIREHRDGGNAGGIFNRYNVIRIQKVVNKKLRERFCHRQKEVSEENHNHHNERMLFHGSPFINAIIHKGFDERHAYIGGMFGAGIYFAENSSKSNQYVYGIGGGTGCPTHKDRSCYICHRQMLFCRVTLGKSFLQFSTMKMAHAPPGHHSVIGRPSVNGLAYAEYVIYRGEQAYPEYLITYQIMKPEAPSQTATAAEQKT
A difference of one corresponds to tenfold IC50; all values are log10 with IC50 in µM.

Cn1nnc(C2CCN(c3nc4c(c(=O)[nH]3)COCC4)CC2)n1 [Example 9]	-0.10
CN1CCN(Cc2cc(F)c(N3CCN(c4nc5c(c(=O)[nH]4)COCC5)CC3)c(F)c2)CC1 [Example 6]	-1.43
COCCOc1cc(F)c(C2CCN(c3nc4c(c(=O)[nH]3)COCC4)CC2)c(F)c1 [Example 11]	-1.13

Record O=c1[nH]c(N2CCN(c3c(F)cc(OCCn4ccnc4)cc3F)CC2)nc2c1COCC2 [Example 13] / tankyrase 1 (Homo sapiens), log10(IC50) recorded as -1.60

Record O=c1[nH]c(N2CCN(c3c(F)cc(OCCO)cc3F)CC2)nc2c1COCC2 [Example 4] / tankyrase 1 (Homo sapiens), log10(IC50) recorded as -1.58

Record O=c1[nH]c(N2CCN(c3c(F)cc(OCC(O)CO)cc3F)CC2)nc2c1COCC2 (stereo not drawn) [Example 5] / tankyrase 1 (Homo sapiens), log10(IC50) recorded as -1.58

Record O=c1[nH]c(N2CCN(c3c(F)cc(OCCN4CCOCC4)cc3F)CC2)nc2c1COCC2 [Example 2] / tankyrase 1 (Homo sapiens), log10(IC50) recorded as -1.39

Record CC(O)c1cc(F)c(N2CCN(c3nc4c(c(=O)[nH]3)COCC4)CC2)c(F)c1 (stereo not drawn) [Example 7] / tankyrase 1 (Homo sapiens), log10(IC50) recorded as -1.66

Record O=C(COc1cc(F)c(N2CCN(c3nc4c(c(=O)[nH]3)COCC4)CC2)c(F)c1)N1CCCCC1 [Example 10] / tankyrase 1 (Homo sapiens), log10(IC50) recorded as -1.47

Record O=c1[nH]c(N2CCN(c3c(F)cc(OCCN4CCCCC4)cc3F)CC2)nc2c1COCC2 [Example 3] / tankyrase 1 (Homo sapiens), log10(IC50) recorded as -1.39

Record COCCOc1cc(F)c(C2(O)CCN(c3nc4c(c(=O)[nH]3)COCC4)CC2)c(F)c1 [Example 8] / tankyrase 1 (Homo sapiens), log10(IC50) recorded as -0.79

Record CCN(CC)CCOc1cc(F)c(N2CCN(c3nc4c(c(=O)[nH]3)COCC4)CC2)c(F)c1 [Example 12] / tankyrase 1 (Homo sapiens), log10(IC50) recorded as -1.47

###

target: tankyrase 1 (Homo sapiens); construct: purchased Trevigen 4700-096-K; test: Analysis of activity of tankyrase 1 (Trevigen kit, ELISA absorbance at 450 nm); format: biochemical
assay endpoint: IC50 (µM)
Give the value, in units of µM, as a plain number.

Per the records, this compound ( COCCOc1cc(F)c(N2CCN(c3nc4c(c(=O)[nH]3)COCC4)CC2)c(F)c1 ) has IC50 equal to 0.0272
